test system: senescent cells; experiment: Viability of senescent cells (CellTiter-Glo), Example 17, Table 13; details: Homo sapiens, read-out: Survival (%)
MEASURED ATTRIBUTE: viability at 1.1 µM (%)

CCN(CCCOc1ccc2c(Nc3cc(CC(=O)Nc4cccc(F)c4)n[nH]3)ncnc2c1)CCOP(=O)(O)O
3.8
C=C(CN1Cc2c(ccc3ccc(-c4cc(NC(C)=O)cc(OC)c4)cc23)C1=O)C(N)=O
95.5
COc1ccc(F)cc1C(=O)NCc1ccc(-c2nn([C@@H](C)C(F)(F)F)c(N)c2C(N)=O)cc1
0.2
C[C@@H](Nc1nc(N[C@H](C)C(F)(F)F)nc(-c2cccc(Cl)n2)n1)C(F)(F)F
52.3
Cc1cccc2c1NC(=O)[C@@H](NC(=O)[C@H](CCC(F)(F)F)[C@H](CCC(F)(F)F)C(N)=O)N=C2c1cccc(F)c1
97.2
CC[C@@H]1C(=O)N(C)c2cnc(Nc3ccc(C(=O)N[C@H]4CC[C@H](N5CCN(CC6CC6)CC5)CC4)cc3OC)nc2N1C(C)C
68.7
C[S+]([O-])CCCCN=C=S (stereo not shown)
84.3

---

# key: entry, value: Heart Sur2a mRNA
test system: naturally aged mice; assay: Anti-aging evaluation in naturally aged mice, Example 31, Table 55; assay type: in vivo, mouse; details: heart, untreated = 1.0;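 also: Vehicle-dosed control mice received solution alone at matching volume, values compare test-compound-treated aged mice against that control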
MEASURED ATTRIBUTE: Heart Sur2a mRNA (fold)

O=C(NCc1ccncc1)C12CC3CC(C1)CC(c1ccc(Cl)cc1)(C3)C2
1.6
Nc1ccc(/C=C/C(=O)NCc2cc3cc(-c4ccc(C(=O)N5CCC(F)(F)CC5)cc4)cc(-c4ccc(F)cc4)c3o2)cn1
2.0
Cc1nnc(-c2cc(C(=O)N3CCC(c4ccc(C#N)cc4)CC3)c(C)cc2C2CCC2)[nH]1
1.8
C[C@@H]1CC[C@@]23C[C@H](O)C(=O)[C@@]2(O)[C@]1(C)[C@H](OC(=O)CCl)C[C@@H](C1=CCn2c(=O)n(-c4ccccc4)c(=O)n2C1)[C@@H]3C
2.7
CN(NC(=O)CC(=O)NN(C)C(=S)c1ccccc1)C(=S)c1ccccc1
1.8
O=C(O)c1cc(/N=N/c2ccc(S(=O)(=O)Nc3ccccn3)cc2)ccc1O
2.3
Cn1cc(C[C@@H](N)C(=O)O)c2ccccc21
2.9

---

test system: senescent human cells; experiment: Viability of doxorubicin-induced senescent human cells (CellTiter-Glo), Example 11; assay type: cell-based; conditions: […]; 0 μM = 100
Note to self: values exactly at 80% are class 1. So Survival at or above 80% is class 1, below is class 0.

CN(Cc1cnc2nc(N)nc(N)c2n1)c1ccc(C(=O)N[C@@H](CCC(=O)O)C(=O)O)cc1 [LX-2901, Methotrexate]
class 1
S=C(N/N=C1\CCCc2cccnc21)N1CCN(c2ccccn2)CC1
class 0
CCOC(=O)[C@@H](N)CCC(=O)N[C@@H](CSCc1ccccc1)C(=O)N[C@@H](C(=O)OCC)c1ccccc1
class 1

---

Quick reference for Survival (%) among some molecules
tested on: senescent A549 cells; assay: Viability of senescent A549 cells (CellTiter-Glo), Example 18, Table 15; details: 30 μM; doxorubicin-induced senescent A549 cells; 0 μM = 100%
MEASURED ATTRIBUTE: Survival (%)

CN1CCc2c(c3ccccc3n2Cc2ccc(C(=O)NO)cc2)C1
22.2
CN(CCOc1ccc(CC2SC(=O)NC2=O)cc1)c1ccccn1 (stereo not drawn)
3.0
CCNCc1nc2c(O)c(Cl)cc(Cl)c2c(=O)n1C
20.7
Nc1cc(COc2c(Cl)cc(C[C@H](N)C(=O)O)cc2Cl)c2oc(-c3ccccc3)nc2c1
10.1
CC(=O)[O-].CC(=O)[O-].CCc1c(CC)c2cc3nc(cnc4cc(OCCOCCOCCOC)c(OCCOCCOCCOC)cc4ncc4nc(cc1[n-]2)C(CCCO)=C4C)C(C)=C3CCCO.O.[Gd+3]
49.2
CCCCCC/C=C\CCCCCCCCCC(=O)N[C@H]1[C@H](OC[C@H]2O[C@H](OP(=O)([O-])[O-])[C@H](NC(=O)CC(=O)CCCCCCCCCCC)[C@@H](OCCCCCCCCCC)[C@@H]2O)O[C@H](COC)[C@@H](OP(=O)([O-])[O-])[C@@H]1OCC[C@@H](CCCCCCC)OC.[Na+].[Na+].[Na+].[Na+] [LX-9136, Eritoran tetrasodium]
44.8
CCCCCCCCCCCCCCCCCCCC(=O)N[C@H]1CC[C@@]2(C)[C@@H](C1)C[C@@H](O)[C@@H]1[C@@H]2C[C@H](O)[C@]2(C)[C@@H]([C@H](C)CCC(=O)O)CC[C@@H]12
11.9
CCO[C@@H](Cc1ccc(OCCn2c(C)ccc2-c2ccc(SC)cc2)cc1)C(=O)[O-].CCO[C@@H](Cc1ccc(OCCn2c(C)ccc2-c2ccc(SC)cc2)cc1)C(=O)[O-].[Mg+2]
10.4
CN(CC(=O)Nc1nc2ccc(OC(F)(F)F)cc2s1)C(=O)CNC(=O)CN
14.6
